Test system: sorghum
Test: Test B preemergence/postemergence greenhouse plant response rating 0 to 10
Type: in vivo, Sorghum bicolor
Conditions: PREEMERGENCE, Rate 200 g/ha
Readout name: Plant response rating (0 to 10 scale), Sorghum
Please respond with just the number, no unit label.

[ask] Please give the measured Plant response rating (0 to 10 scale), Sorghum for this molecule: CCOC(=O)c1cc(-c2nn3c(c2Cl)CCCC3)c(F)cc1Cl [Compound 78]
[reply] 3

[ask] What value of measured Plant response rating (0 to 10 scale), Sorghum is listed for O=C1COc2cc(F)c(-c3nn4c(c3Br)CCCC4)cc2N1 [Compound 80] ?
[reply] 0

[ask] Param item = COCCOc1cc(-c2nn3c(c2Cl)CCCC3)c(Cl)cc1Cl [Compound 72] ; retrieve measured Plant response rating (0 to 10 scale), Sorghum.
[reply] 0

[ask] Reported Plant response rating (0 to 10 scale), Sorghum for CC(C)(C)C(=O)COc1cc(-c2nn3c(c2Cl)CCCC3)c(Cl)cc1Cl [Compound 77] : what is it?
[reply] 0

* * *

System: giant foxtail
Assay: Test B preemergence/postemergence greenhouse plant response rating 0 to 10
Assay type: in vivo, Setaria faberii
Settings: POSTEMERGENCE, Rate 200 g/ha; 0 to 10 scale
Readout name: Plant response rating, Giant foxtail
Please reply with the value in numeric form only.

[ask] May I ask what Plant response rating, Giant foxtail has been recorded for "CC(C)Oc1cc(-c2nn3c(c2Cl)CCCC3)c(F)cc1Cl" ?
[reply] 7

[ask] // query Plant response rating, Giant foxtail value for entry "C#CCOc1cc(-c2nn3c(c2Br)CCCC3)c(F)cc1Cl"
[reply] 6

[ask] I have this compound here, "Clc1ccc(-c2nc3n(c2Cl)CCC=C3)c(Cl)c1" , and I need its recorded Plant response rating, Giant foxtail.
[reply] 3

[ask] Which Plant response rating, Giant foxtail is reported for this compound? COC(=O)C(C)Oc1cc(-c2nn3c(c2Cl)CCCC3)c(F)cc1Cl (stereo not shown)
[reply] 8

* * *

Test system: wild buckwheat
Assay: Test B preemergence/postemergence greenhouse plant response rating 0 to 10
Assay type: in vivo, Polygonum convolvulus
Details: Rate 200 g/ha, PREEMERGENCE; 0 to 10 scale
Hi there, I'd appreciate the recorded Plant response rating, Wild buckwheat for every entry that follows.
Please reply with the number alone, leaving off any unit.

[ask] Fill in the blank: the reported Plant response rating, Wild buckwheat of CC(C)Oc1cc(-c2nn3c(c2Cl)CCCC3)c(F)cc1Cl [Compound 21] is ____.
[reply] 9

[ask] What value of measured Plant response rating, Wild buckwheat is listed for C#CC(C)Oc1cc(-c2nn3c(c2Cl)CCCC3)c(F)cc1Cl (centres unmarked) [Compound 36] ?
[reply] 10

[ask] Field request: Plant response rating, Wild buckwheat | item: Clc1ccc(-c2nn3c(c2Cl)CCCC3)c(Cl)c1 [Compound 35]
[reply] 1

[ask] What value of measured Plant response rating, Wild buckwheat is listed for COc1cc(-c2nn3c(c2Cl)CCCC3)c(F)cc1Cl [Compound 29] ?
[reply] 10

[ask] Look up Plant response rating, Wild buckwheat for this compound: CC(=O)c1cc(-c2nn3c(c2Cl)CCCC3)c(F)cc1Cl [Compound 45]
[reply] 10

[ask] For the compound shown here, CC(C)COc1cc(-c2nn3c(c2Cl)CCCC3)c(F)cc1Cl [Compound 30] , give the reported Plant response rating, Wild buckwheat.
[reply] 6

[ask] Please report the recorded Plant response rating, Wild buckwheat for CCC(=O)Oc1cc(-c2nn3c(c2Cl)CCCC3)c(F)cc1Cl [Compound 47] .
[reply] 9

[ask] Please report the recorded Plant response rating, Wild buckwheat for O=C1COc2cc(F)c(-c3nn4c(c3Cl)CCCC4)cc2N1 [Compound 51] .
[reply] 10
